System: Saccharomyces cerevisiae
Test: protein stability index of tFT-peptide fusion (C-terminal peptide) (PSI (0-1 scale)); higher = more stable (slower turnover);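 also: PSI is a weighted mean of sequencing reads over stability bins, variants kept only with over 10 reads, mCherry proximal and sfGFP distal, peptide attached via GGGS linker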
Details: genetic background: wild type; temperature: 30 C
readout_label: protein stability index

sequence_content: LPPRAPPTCFPL
reported_measurement: 0.658
//
sequence_content: RSDRDGPPRGDS
reported_measurement: 0.719
//
sequence_content: YSEKFKDRFKED
reported_measurement: 0.67
//
sequence_content: DGTTAIAGPHPT
reported_measurement: 0.629
//
sequence_content: DWVLGRRDTRKP
reported_measurement: 0.752
//
sequence_content: VIRRLSNPCILR
reported_measurement: 0.663
//
sequence_content: LFGFYFVRCLVW
reported_measurement: 0.226
//
sequence_content: TICRKPTLMSPQ
reported_measurement: 0.775
//
sequence_content: FRFYCGLVIANV
reported_measurement: 0.483
//
sequence_content: QLPGTVVRYTLF
reported_measurement: 0.641
//
sequence_content: NLCTPRFATDFG
reported_measurement: 0.629
//
sequence_content: CPGTSRADFSAV
reported_measurement: 0.681
//
sequence_content: VSTRVAVESPLG
reported_measurement: 0.656
//
sequence_content: GVLQYPPCTYPH
reported_measurement: 0.675
//
sequence_content: ACLWRLSWVLGK
reported_measurement: 0.641
//
sequence_content: FGGRGRVASRLV
reported_measurement: 0.763
//
sequence_content: TPLGLSVSSPPT
reported_measurement: 0.661
//
sequence_content: PPAPPHHPPPSS
reported_measurement: 0.679

---

Tested on: Saccharomyces cerevisiae
Assay: protein stability index of tFT-peptide fusion (C-terminal peptide) (PSI (0-1 scale)); higher = more stable (slower turnover)
Conditions: genetic background: wild type; temperature: 30 C
Is protein stability index at least 0.7? Then satisfied. If not, not satisfied.

sequence_content: PLSPPPVNIPPT
label: satisfied
--
sequence_content: VLLYRIAPRLLH
label: not satisfied
--
sequence_content: RGELSGVRVSVR
label: not satisfied
--
sequence_content: RLRPLSPPTLCD
label: not satisfied
--
sequence_content: PPASLFFPPLSP
label: satisfied
--
sequence_content: CSLFFFRLIFTL
label: not satisfied

---

Tested on: Saccharomyces cerevisiae
Assay: protein stability index of tFT-peptide fusion (C-terminal peptide) (PSI (0-1 scale)); higher = more stable (slower turnover)
Conditions: genetic background: wild type; temperature: 30 C
Quick rule for you: protein stability index at 0.7 or higher means met, lower means not met.

sequence_content: VCLVLVVVWWSG
assay_system: Saccharomyces cerevisiae
label: not met
--
sequence_content: SRICRTIIQLKQ
assay_system: Saccharomyces cerevisiae
label: not met
--
sequence_content: PPFPPPPRPADH
assay_system: Saccharomyces cerevisiae
label: met
--
sequence_content: SSTALVFRLICL
assay_system: Saccharomyces cerevisiae
label: not met
--
sequence_content: ALMTFTLVFTYM
assay_system: Saccharomyces cerevisiae
label: not met
--
sequence_content: VGVSGEGFSWGG
assay_system: Saccharomyces cerevisiae
label: not met
--
sequence_content: QIESNLGYWGIG
assay_system: Saccharomyces cerevisiae
label: met
--
sequence_content: DDATLAVCRGWV
assay_system: Saccharomyces cerevisiae
label: met
--
sequence_content: DVFCFWCVSGFV
assay_system: Saccharomyces cerevisiae
label: not met
--
sequence_content: GSMVWVRCGLER
assay_system: Saccharomyces cerevisiae
label: not met
--
sequence_content: FDNPFQATTATK
assay_system: Saccharomyces cerevisiae
label: met
--
sequence_content: PPPSSPSPPRCR
assay_system: Saccharomyces cerevisiae
label: met
--
sequence_content: SLRYRFLSFFFL
assay_system: Saccharomyces cerevisiae
label: not met
--
sequence_content: AGGGNGGGGGEK
assay_system: Saccharomyces cerevisiae
label: not met
--
sequence_content: RVIRHLRRISNF
assay_system: Saccharomyces cerevisiae
label: not met
--
sequence_content: RQFVTACPLWRH
assay_system: Saccharomyces cerevisiae
label: not met

---

Recorded protein stability index by entry
System: Saccharomyces cerevisiae
Test: protein stability index of tFT-peptide fusion (C-terminal peptide) (PSI (0-1 scale)); higher = more stable (slower turnover)
Settings: genetic background: wild type; temperature: 30 C
readout_label: protein stability index

sequence_content: RGIEQRHFPKGA
reported_measurement: 0.7
//
sequence_content: PSPAPPPLPFPR
reported_measurement: 0.72
//
sequence_content: WCFVPLSFRLDS
reported_measurement: 0.71
//
sequence_content: SGLSFPPLYSLL
reported_measurement: 0.715
//
sequence_content: SCPSRLFLSFRG
reported_measurement: 0.683

---

System: Saccharomyces cerevisiae
Assay: protein stability index of tFT-peptide fusion (C-terminal peptide) (PSI (0-1 scale)); higher = more stable (slower turnover)
Settings: genetic background: cdc34-1; temperature: 37 C
Binning of protein stability index into classes: category 1 = under 0.4, category 2 = from 0.4 up to 0.5, category 3 = 0.5 and over

sequence_content: SFRIWLFRFFFV
assay_system: Saccharomyces cerevisiae
label: category 3
--
sequence_content: SLASPPPLLILR
assay_system: Saccharomyces cerevisiae
label: category 1
--
sequence_content: RRQQNHRQLCAT
assay_system: Saccharomyces cerevisiae
label: category 3
--
sequence_content: VPRSLYSVLRLA
assay_system: Saccharomyces cerevisiae
label: category 3
--
sequence_content: CTLVFLFFDLCS
assay_system: Saccharomyces cerevisiae
label: category 2
--
sequence_content: DFRGVSVIRHQV
assay_system: Saccharomyces cerevisiae
label: category 3
--
sequence_content: VFGSVAALRLLM
assay_system: Saccharomyces cerevisiae
label: category 3
--
sequence_content: FCSVFAHFLLCH
assay_system: Saccharomyces cerevisiae
label: category 1
--
sequence_content: LCSLSIFVLFSC
assay_system: Saccharomyces cerevisiae
label: category 1
--
sequence_content: GFIRVRHLRSLC
assay_system: Saccharomyces cerevisiae
label: category 3
--
sequence_content: ATSGATILVLIA
assay_system: Saccharomyces cerevisiae
label: category 3
--
sequence_content: PPIPTPSPIPLH
assay_system: Saccharomyces cerevisiae
label: category 3
--
sequence_content: VMWFVLVGLCIL
assay_system: Saccharomyces cerevisiae
label: category 2
--
sequence_content: AITHVILLVTPL
assay_system: Saccharomyces cerevisiae
label: category 3
--
sequence_content: RLIQPLPVQFLN
assay_system: Saccharomyces cerevisiae
label: category 1
--
sequence_content: PPPHPPPATFLS
assay_system: Saccharomyces cerevisiae
label: category 3
--
sequence_content: SLRYRFLSFFFL
assay_system: Saccharomyces cerevisiae
label: category 3
--
sequence_content: FLVVSSVGFPLL
assay_system: Saccharomyces cerevisiae
label: category 3
--
sequence_content: YVSSCLLWLCFV
assay_system: Saccharomyces cerevisiae
label: category 2
--
sequence_content: VLLYRIAPRLLH
assay_system: Saccharomyces cerevisiae
label: category 3
--
sequence_content: CSLRGLFLVVSV
assay_system: Saccharomyces cerevisiae
label: category 1
--
sequence_content: LVRFYGPLPPFP
assay_system: Saccharomyces cerevisiae
label: category 3
--
sequence_content: VAVYVGVGVSLG
assay_system: Saccharomyces cerevisiae
label: category 2
--
sequence_content: PPPPPPPSSSSL
assay_system: Saccharomyces cerevisiae
label: category 3
--
sequence_content: FPSLLFALFLFI
assay_system: Saccharomyces cerevisiae
label: category 2
--
sequence_content: FLLAIVRGVWLA
assay_system: Saccharomyces cerevisiae
label: category 1
--
sequence_content: GFVVYLLLSYLF
assay_system: Saccharomyces cerevisiae
label: category 1
--
sequence_content: VWFCCLFFCFFV
assay_system: Saccharomyces cerevisiae
label: category 2
--
sequence_content: VSLIFCLFFLSC
assay_system: Saccharomyces cerevisiae
label: category 2
--
sequence_content: ICIFWLITGLWL
assay_system: Saccharomyces cerevisiae
label: category 2
--
sequence_content: SPRGVVIAFLVC
assay_system: Saccharomyces cerevisiae
label: category 2
--
sequence_content: VSTVCLDFSPFL
assay_system: Saccharomyces cerevisiae
label: category 3
--
sequence_content: GQFVISVRFLYE
assay_system: Saccharomyces cerevisiae
label: category 2
--
sequence_content: CLFFFFFHLPIF
assay_system: Saccharomyces cerevisiae
label: category 2
--
sequence_content: VGIVWELGCWMG
assay_system: Saccharomyces cerevisiae
label: category 1
--
sequence_content: LPHIFFCLFSLL
assay_system: Saccharomyces cerevisiae
label: category 3
--
sequence_content: VSFEFSVLWTVF
assay_system: Saccharomyces cerevisiae
label: category 3
--
sequence_content: LQSYIFSVRGIS
assay_system: Saccharomyces cerevisiae
label: category 3
--
sequence_content: FPPRLIPLLARS
assay_system: Saccharomyces cerevisiae
label: category 2
--
sequence_content: SSCFLLFRVVWR
assay_system: Saccharomyces cerevisiae
label: category 1
--
sequence_content: FFFSFSFPFLSF
assay_system: Saccharomyces cerevisiae
label: category 2
--
sequence_content: LCLRCQCIGTLS
assay_system: Saccharomyces cerevisiae
label: category 3
--
sequence_content: VFLRCRSLSMRV
assay_system: Saccharomyces cerevisiae
label: category 2
--
sequence_content: GVLTVVLQVGVV
assay_system: Saccharomyces cerevisiae
label: category 1
--
sequence_content: FSFSCFFFVLFV
assay_system: Saccharomyces cerevisiae
label: category 1
--
sequence_content: LHASCVYTILLV
assay_system: Saccharomyces cerevisiae
label: category 2
--
sequence_content: CSLFFFRLIFTL
assay_system: Saccharomyces cerevisiae
label: category 1
--
sequence_content: VRWALLGVVVEG
assay_system: Saccharomyces cerevisiae
label: category 1
--
sequence_content: VVVYWGSLKRVC
assay_system: Saccharomyces cerevisiae
label: category 3
--
sequence_content: LFFFVCYLATVK
assay_system: Saccharomyces cerevisiae
label: category 1
--
sequence_content: CVCVVVCWRCGF
assay_system: Saccharomyces cerevisiae
label: category 1
